System: SARS-CoV-1, MERS-CoV and SARS-CoV-2 proteins in HEK293T cells
Set-up: species or system human
propertyLabel: Saint_SARS2
The answer should be written as a number, with no unit following it.

Past entries and their recorded results:
M-Q5BJH7 (protein, UniProt Q5BJH7 1-314, looked up) Protein YIF1B: MHPAGLAAAAAGTPRLRKWPSKRRIPVSQPGMADPHQLFDDTSSAQSRGYGAQRAPGGLSYPAASPTPHAAFLADPVSNMAMAYGSSLAAQGKELVDKNIDRFIPITKLKYYFAVDTMYVGRKLGLLFFPYLHQDWEVQYQQDTPVAPRFDVNAPDLYIPAMAFITYVLVAGLALGTQDRFSPDLLGLQASSALAWLTLEVLAILLSLYLVTVNTDLTTIDLVAFLGYKYVGMIGGVLMGLLFGKIGYYLVLGWCCVAIFVFMIRTLRLKILADAAAEGVPVRGARNQLRMYLTMAVAAAQPMLMYWLTFHLVR : 1
M-Q9BQ95 (protein, UniProt Q9BQ95 49-431, looked up) Evolutionarily conserved …: SSEQSLVPSPPEPRQRPTKALVPFEDLFGQAPGGERDKASFLQTVQKFAEHSVRKRGHIDFIYLALRKMREYGVERDLAVYNQLLNIFPKEVFRPRNIIQRIFVHYPRQQECGIAVLEQMENHGVMPNKETEFLLIQIFGRKSYPMLKLVRLKLWFPRFMNVNPFPVPRDLPQDPVELAMFGLRHMEPDLSARVTIYQVPLPKDSTGAADPPQPHIVGIQSPDQQAALARHNPARPVFVEGPFSLWLRNKCVYYHILRADLLPPEEREVEETPEEWNLYYPMQLDLEYVRSGWDNYEFDINEVEEGPVFAMCMAGAHDQATMAKWIQGLQETNPTLAQIPVVFRLAGSTRELQTSSAGLEEPPLPEDHQEEDDNLQRQQQGQS : 0
E-Q8WY22 (protein, UniProt Q8WY22 1-251, looked up, prey of SARS-CoV-2 E) BRI3-binding protein: MGARASGGPLARAGLLLLLLLLLLLGLLAPGAQGARGRGGAEKNSYRRTVNTFSQSVSSLFGEDNVRAAQKFLARLTERFVLGVDMFVETLWKVWTELLDVLGLDVSNLSQYFSPASVSSSPARALLLVGVVLLAYWFLSLTLGFTFSVLHVVFGRFFWIVRVVLFSMSCVYILHKYEGEPENAVLPLCFVVAVYFMTGPMGFYWRSSPSGPSNPSNPSVEEKLEHLEKQVRLLNIRLNRVLESLDRSKDK : 0
M-Q96HR9 (protein, UniProt Q96HR9 1-211, looked up) Receptor expression-enhancing …: MDGLRQRVEHFLEQRNLVTEVLGALEAKTGVEKRYLAAGAVTLLSLYLLFGYGASLLCNLIGFVYPAYASIKAIESPSKDDDTVWLTYWVVYALFGLAEFFSDLLLSWFPFYYVGKCAFLLFCMAPRPWNGALMLYQRVVRPLFLRHHGAVDRIMNDLSGRALDAAAGITRNVLQVLARSRAGITPVAVAGPSTPLEADLKPSQTPQPKDK : 0.65

Qu. Entry M-Q9BV40 (protein, UniProt Q9BV40 1-100, looked up, host interactor of M) Vesicle-associated membrane …: MEEASEGGGNDRVRNLQSEVEGVKNIMTQNVERILARGENLEHLRNKTEDLEATSEHFKTTSQKVARKFWWKNVKMIVLICVIVFIIILFIVLFATGAFS : reported Saint_SARS2 = ?
Ans. 0

# credit: patent US20230395193A1
